- ASSAYED_SYSTEM: HIV-1 Env of pseudovirus CNE52 (HIV-1)
- MEASUREMENT_PROTOCOL: cell-based or functional assay
QUANTITY_KIND: neutralization IC80

[ask] Sample MS-84 (antibody, V domains shown) VH: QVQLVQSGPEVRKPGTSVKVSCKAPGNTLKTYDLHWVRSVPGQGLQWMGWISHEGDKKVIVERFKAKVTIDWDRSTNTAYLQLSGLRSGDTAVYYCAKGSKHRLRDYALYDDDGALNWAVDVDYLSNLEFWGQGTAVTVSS VL: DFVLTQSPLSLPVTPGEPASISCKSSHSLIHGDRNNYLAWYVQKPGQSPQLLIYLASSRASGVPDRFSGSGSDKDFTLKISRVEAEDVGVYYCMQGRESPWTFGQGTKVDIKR — what was its neutralization IC80?
[reply] 0.83 µg/mL

FYI, the data here is from patent US20220025021A1.
